Where these numbers come from: paper PMC13334477

# Test target: rLTR4 RNA G4
# Run description: Native ESI-MS, rLTR4
# Format: binding, HIV-1
# Cond: 10 μM RNA, 20 μM ligand, 100 mM ammonium acetate; read-out: Kd1 rLTR4

| Compound | Kd |
| --- | --- |
| c1ccc(-[n+]2c3ccc4ccccc4c3cc3c4ccccc4ccc32)cc1 [DBA5] | 4.99 µM |
| COc1ccc2c(ccc3c2cc2c4ccc(OC)cc4ccc2[n+]3-c2ccc([N+](=O)[O-])cc2)c1 [DBA4] | 10.4 µM |
| COc1ccc(-[n+]2c3ccc4cc(OC)ccc4c3cc3c4ccc(OC)cc4ccc32)cc1 [DBA3] | 12.2 µM |
| COC(=O)c1ccc(-[n+]2c3ccc4cc(OC)ccc4c3cc3c4ccc(OC)cc4ccc32)cc1 [DBA2] | 10.9 µM |
| COc1ccc2c(ccc3c2cc2c4ccc(OC)cc4ccc2[n+]3-c2ccccc2)c1 [DBA1] | 20.2 µM |

* * *

# Test target: TG4T DNA G4 (parallel)
# Run description: Native ESI-MS, TG4T
# Type: binding
# Cond: 10 μM DNA, 20 μM ligand, 100 mM ammonium acetate; read-out: Kd1 TG4T
Mark 1 for Kd under 10 µM, -1 if at or over.

| Sample smiles | Label value |
| --- | --- |
| COc1ccc2c(ccc3c2cc2c4ccc(OC)cc4ccc2[n+]3-c2ccccc2)c1 | -1 |
| COc1ccc(-[n+]2c3ccc4cc(OC)ccc4c3cc3c4ccc(OC)cc4ccc32)cc1 | -1 |
| c1ccc(-[n+]2c3ccc4ccccc4c3cc3c4ccccc4ccc32)cc1 | -1 |
| COC(=O)c1ccc(-[n+]2c3ccc4cc(OC)ccc4c3cc3c4ccc(OC)cc4ccc32)cc1 | 1 |
| COc1ccc2c(ccc3c2cc2c4ccc(OC)cc4ccc2[n+]3-c2ccc([N+](=O)[O-])cc2)c1 | 1 |

* * *

// Ka rLTR4-3′Cy5 FQA lookup, one value per entry
# System: rLTR4-3′Cy5 (parallel RNA G4)
# Run description: Ligand-induced fluorescence quenching assay (FQA), rLTR4-3′Cy5
# Assay type: binding, HIV-1
# Cond: +10µM ds26
Readout label: Ka rLTR4-3′Cy5 FQA

| Sample smiles | Readout label | Experimental result |
| --- | --- | --- |
| COc1ccc2c(ccc3c2cc2c4ccc(OC)cc4ccc2[n+]3-c2ccc([N+](=O)[O-])cc2)c1 | Ka rLTR4-3′Cy5 FQA | 1.9±0.1 10^5 M |
| c1ccc(-[n+]2c3ccc4ccccc4c3cc3c4ccccc4ccc32)cc1 | Ka rLTR4-3′Cy5 FQA | 2.5±0.2 10^5 M |
| COC(=O)c1ccc(-[n+]2c3ccc4cc(OC)ccc4c3cc3c4ccc(OC)cc4ccc32)cc1 | Ka rLTR4-3′Cy5 FQA | 1.2±0.08 10^5 M |
| COc1ccc2c(ccc3c2cc2c4ccc(OC)cc4ccc2[n+]3-c2ccccc2)c1 | Ka rLTR4-3′Cy5 FQA | 2.8±0.23 10^5 M |
| COc1ccc(-[n+]2c3ccc4cc(OC)ccc4c3cc3c4ccc(OC)cc4ccc32)cc1 | Ka rLTR4-3′Cy5 FQA | 1.5±0.09 10^5 M |

* * *

# Test target: rLTR4-3′Cy5 (parallel RNA G4)
# Run description: Ligand-induced fluorescence quenching assay (FQA), rLTR4-3′Cy5
# Type: binding, HIV-1
# Cond: No ds26
pKd: −log10 of the molar value.
// pKd lookup, one value per entry

| Molecule | pKd |
| --- | --- |
| COc1ccc2c(ccc3c2cc2c4ccc(OC)cc4ccc2[n+]3-c2ccccc2)c1 [DBA1] | 5.49 |
| COc1ccc(-[n+]2c3ccc4cc(OC)ccc4c3cc3c4ccc(OC)cc4ccc32)cc1 [DBA3] | 5.21 |
| COC(=O)c1ccc(-[n+]2c3ccc4cc(OC)ccc4c3cc3c4ccc(OC)cc4ccc32)cc1 [DBA2] | 5.17 |
| c1ccc(-[n+]2c3ccc4ccccc4c3cc3c4ccccc4ccc32)cc1 [DBA5] | 5.40 |
| COc1ccc2c(ccc3c2cc2c4ccc(OC)cc4ccc2[n+]3-c2ccc([N+](=O)[O-])cc2)c1 [DBA4] | 5.48 |

* * *

# Test target: Htel DNA G4 (human telomeric)
# Run description: Native ESI-MS, Htel
# Assay type: binding
# Cond: 10 μM DNA, 20 μM ligand, 100 mM ammonium acetate; read-out: Kd2 Htel
pKd: −log10 of the molar value.
Readout label: pKd

| Sample smiles | Test target | Readout label | Experimental result |
| --- | --- | --- | --- |
| c1ccc(-[n+]2c3ccc4ccccc4c3cc3c4ccccc4ccc32)cc1 | Htel DNA G4 (human telomeric) | pKd | 4.61 |
| COc1ccc2c(ccc3c2cc2c4ccc(OC)cc4ccc2[n+]3-c2ccccc2)c1 | Htel DNA G4 (human telomeric) | pKd | 3.99 |
| COc1ccc(-[n+]2c3ccc4cc(OC)ccc4c3cc3c4ccc(OC)cc4ccc32)cc1 | Htel DNA G4 (human telomeric) | pKd | 4.56 |
| COC(=O)c1ccc(-[n+]2c3ccc4cc(OC)ccc4c3cc3c4ccc(OC)cc4ccc32)cc1 | Htel DNA G4 (human telomeric) | pKd | 4.45 |
| COc1ccc2c(ccc3c2cc2c4ccc(OC)cc4ccc2[n+]3-c2ccc([N+](=O)[O-])cc2)c1 | Htel DNA G4 (human telomeric) | pKd | 4.26 |

* * *

// ΔT1/2 HIVpro1 lookup, one value per entry
# System: HIVpro1-FT (anti-parallel DNA G4)
# Run description: FRET melting assay, HIVpro1-FT
# Format: binding, HIV-1
# Cond: +10µM ds26; ligand 1 μM, DNA 0.2 μM
Readout label: ΔT1/2 HIVpro1 (°C)

| Compound | Readout label | Result unit | Experimental result |
| --- | --- | --- | --- |
| COc1ccc2c(ccc3c2cc2c4ccc(OC)cc4ccc2[n+]3-c2ccc([N+](=O)[O-])cc2)c1 [DBA4] | ΔT1/2 HIVpro1 | °C | 5.1 |
| c1ccc(-[n+]2c3ccc4ccccc4c3cc3c4ccccc4ccc32)cc1 [DBA5] | ΔT1/2 HIVpro1 | °C | 3.6 |
| COC(=O)c1ccc(-[n+]2c3ccc4cc(OC)ccc4c3cc3c4ccc(OC)cc4ccc32)cc1 [DBA2] | ΔT1/2 HIVpro1 | °C | 3.9 |
| COc1ccc2c(ccc3c2cc2c4ccc(OC)cc4ccc2[n+]3-c2ccccc2)c1 [DBA1] | ΔT1/2 HIVpro1 | °C | 4.4 |
| COc1ccc(-[n+]2c3ccc4cc(OC)ccc4c3cc3c4ccc(OC)cc4ccc32)cc1 [DBA3] | ΔT1/2 HIVpro1 | °C | 5.0 |

* * *

# Test target: G4T4G4 DNA G4 (antiparallel)
# Run description: Native ESI-MS, G4T4G4
# Format: binding
# Cond: 10 μM DNA, 20 μM ligand, 100 mM ammonium acetate; read-out: Kd1 G4T4G4
Mark Criterion met for Kd under 50 µM, Criterion not met if at or over.

| Sample smiles | Label value |
| --- | --- |
| c1ccc(-[n+]2c3ccc4ccccc4c3cc3c4ccccc4ccc32)cc1 | Criterion not met |
| COc1ccc(-[n+]2c3ccc4cc(OC)ccc4c3cc3c4ccc(OC)cc4ccc32)cc1 | Criterion met |
| COc1ccc2c(ccc3c2cc2c4ccc(OC)cc4ccc2[n+]3-c2ccccc2)c1 | Criterion met |
| COc1ccc2c(ccc3c2cc2c4ccc(OC)cc4ccc2[n+]3-c2ccc([N+](=O)[O-])cc2)c1 | Criterion met |

* * *

# Tested on: TG4T (DNA, G4) TGGGGT
# Run description: native ESI-MS
# Cond: 100 mM ammonium acetate (NH4+), no K+; apparent, site 1 of 2; 10 μM DNA, 20 μM ligand, 4 °C incubation
// Kd1 lookup, one value per entry
Readout label: Kd1 (µM)

| Sample smiles | Test target | Readout label | Result unit | Experimental result |
| --- | --- | --- | --- | --- |
| COc1ccc2c(ccc3c2cc2c4ccc(OC)cc4ccc2[n+]3-c2ccccc2)c1 | TG4T (DNA, G4) TGGGGT | Kd1 | µM | 14.69 |
| c1ccc(-[n+]2c3ccc4ccccc4c3cc3c4ccccc4ccc32)cc1 | TG4T (DNA, G4) TGGGGT | Kd1 | µM | 21.57 |
| COC(=O)c1ccc(-[n+]2c3ccc4cc(OC)ccc4c3cc3c4ccc(OC)cc4ccc32)cc1 | TG4T (DNA, G4) TGGGGT | Kd1 | µM | 6.09 |
| COc1ccc(-[n+]2c3ccc4cc(OC)ccc4c3cc3c4ccc(OC)cc4ccc32)cc1 | TG4T (DNA, G4) TGGGGT | Kd1 | µM | 13.62 |
| COc1ccc2c(ccc3c2cc2c4ccc(OC)cc4ccc2[n+]3-c2ccc([N+](=O)[O-])cc2)c1 | TG4T (DNA, G4) TGGGGT | Kd1 | µM | 5.42 |

* * *

# Test target: rLTR4 RNA G4
# Run description: Native ESI-MS, rLTR4
# Format: binding, HIV-1
# Cond: 10 μM RNA, 20 μM ligand, 100 mM ammonium acetate; read-out: Kd2 rLTR4
pKd: −log10 of the molar value.
// pKd lookup, one value per entry

| Molecule | pKd |
| --- | --- |
| COc1ccc2c(ccc3c2cc2c4ccc(OC)cc4ccc2[n+]3-c2ccc([N+](=O)[O-])cc2)c1 [DBA4] | 6.30 |
| c1ccc(-[n+]2c3ccc4ccccc4c3cc3c4ccccc4ccc32)cc1 [DBA5] | 5.00 |
| COc1ccc(-[n+]2c3ccc4cc(OC)ccc4c3cc3c4ccc(OC)cc4ccc32)cc1 [DBA3] | 6.85 |
| COC(=O)c1ccc(-[n+]2c3ccc4cc(OC)ccc4c3cc3c4ccc(OC)cc4ccc32)cc1 [DBA2] | 6.16 |
| COc1ccc2c(ccc3c2cc2c4ccc(OC)cc4ccc2[n+]3-c2ccccc2)c1 [DBA1] | 6.26 |
